Reported IC50 values are given for each entry in this list.
tested_on: human Gal-1 (Homo sapiens)
Just the number in mM, nothing appended.

Answered cases to consult:
{"molecule": "CC(=O)NC1C(O)CC(OC2C(O)C(CO)OC(OC3C(O)C(CO)OC(OC4C(O)C(CO)OC(OC5C(CO)OC(O)C(O)C5O)C4O)C3NC(C)=O)C2O)(C(=O)O)OC1C(O)C(O)CO (centres unmarked)", "units_text": "mM", "IC50": 1.8}
{"molecule": "CC1OC(OC2C(OC3C(CO)OC(O)C(O)C3OC3OC(C)C(O)C(O)C3O)OC(CO)C(O)C2O)C(O)C(O)C1O (centres unmarked)", "units_text": "mM", "IC50": 11.9}
{"molecule": "CC(=O)NC1C(O)OC(CO)C(OC2OC(CO)C(O)C(OC3(C(=O)O)CC(O)C(NC(C)=O)C(C(O)C(O)CO)O3)C2O)C1O (centres unmarked)", "units_text": "mM", "IC50": 2.2}
{"molecule": "CC(=O)NC1C(O)CC(OC2C(O)C(CO)OC(OC3C(CO)OC(O)C(O)C3OC3OC(C)C(O)C(O)C3O)C2O)(C(=O)O)OC1C(O)C(O)CO (centres unmarked)", "units_text": "mM", "IC50": 5.7}

Consider the additional molecule presented here.
In: May I ask what IC50 has been recorded for CC(=O)NC1C(O)OC(CO)C(OC2OC(CO)C(O)C(O)C2O)C1OC1OC(C)C(O)C(O)C1O (centres unmarked) [Le^X, Lewis X trisaccharide] ?
Out: 8.2

----------
tested_on: human Gal-1 (Homo sapiens, UniProt P09382)
Construct: made in house; host or cells: Escherichia coli BL21 (DE3)
Sequence (P09382 whole entry): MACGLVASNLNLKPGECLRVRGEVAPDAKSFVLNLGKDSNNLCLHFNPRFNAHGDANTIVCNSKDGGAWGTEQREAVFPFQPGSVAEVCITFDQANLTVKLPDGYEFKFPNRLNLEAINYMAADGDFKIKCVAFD
protocol_details: Isothermal titration calorimetry (ITC), Gal-1
Format: binding
assay_setup: Gal-1, PBS, 298 K, n fixed to 1.00
measurement_label: Kd (µM)
Just the number in µM, nothing appended.

In: Form: Entry = CC(=O)NC1C(OC2C(O)C(CO)OC(OC3C(CO)OC(O)C(O)C3O)C2O)OC(CO)C(OC2OC(CO)C(O)C(O)C2O)C1O (stereo not shown) | System = human Gal-1 (Homo sapiens, UniProt P09382) | Kd = ____
Out: 72

----------
tested_on: human Gal-1 (Homo sapiens, UniProt P09382)
measurement_label: IC50 (µM)
Just the number in µM, nothing appended.

{"molecule": "CC(=O)NC1C(OC2C(O)C(CO)OC(OC3C(CO)OC(O)C(O)C3O)C2O)OC(CO)C(O)C1OC1OC(CO)C(O)C(O)C1O (centres unmarked) [LNT, lacto-N-tetraose]", "observed_measurement": 1600}

Consider the additional molecule presented here.
In: May I ask what IC50 has been recorded for CC(=O)NC1C(OC2C(O)C(CO)OC(OC3C(CO)OC(OC4C(O)C(CO)OC(OC5C(CO)OC(OC6C(O)C(CO)OC(OC7C(CO)OC(O)C(O)C7O)C6O)C(NC(C)=O)C5O)C4O)C(NC(C)=O)C3O)C2O)OC(CO)C(OC2OC(CO)C(O)C(O)C2O)C1O (centres unmarked) [LNnO, lacto-N-neooctaose] ?
Out: 600

----------
tested_on: human Gal-7 (Homo sapiens, UniProt P47929)
Sequence (P47929 whole entry): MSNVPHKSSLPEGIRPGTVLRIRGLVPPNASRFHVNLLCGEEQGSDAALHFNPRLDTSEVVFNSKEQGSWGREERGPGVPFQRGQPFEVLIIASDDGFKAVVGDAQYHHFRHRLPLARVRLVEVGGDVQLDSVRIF
Reported log10 of IC50 values are given for each entry in this list.
Log10 applied to IC50; unit prior to transform: mM.

Answered cases to consult:
{"molecule": "CC(=O)NC1C(O)OC(CO)C(OC2OC(CO)C(O)C(OC3(C(=O)O)CC(O)C(NC(C)=O)C(C(O)C(O)CO)O3)C2O)C1O (centres unmarked)", "observed_measurement": 0.34}
{"molecule": "CC(=O)NC1C(OC2C(O)C(CO)OC(OC3C(O)C(CO)OC(O)C3NC(C)=O)C2OC2OC(C)C(O)C(O)C2O)OC(CO)C(O)C1O (centres unmarked) [BGA1, blood group A antigen 1]", "observed_measurement": 0.40}
{"molecule": "CC(=O)NC1C(OC2C(O)C(CO)OC(OC3C(CO)OC(O)C(O)C3OC3OC(C)C(O)C(O)C3O)C2O)OC(CO)C(OC2OC(C)C(O)C(O)C2O)C1OC1OC(CO)C(O)C(O)C1O (centres unmarked) [LAH, Lewis A antigen hexaose]", "observed_measurement": 1.35}
{"molecule": "CC(=O)NC1C(OC2C(O)C(CO)OC(OC3C(CO)OC(O)C(O)C3O)C2OC2OC(C)C(O)C(O)C2O)OC(CO)C(O)C1O (centres unmarked) [BGA6, blood group A antigen tetraose 6]", "observed_measurement": 0.73}

In: May I ask what log10 of IC50 has been recorded for CC(=O)NC1C(OC2C(O)C(CO)OC(OC3C(CO)OC(O)C(O)C3OC3OC(C)C(O)C(O)C3O)C2O)OC(CO)C(OC2OC(CO)C(O)C(O)C2O)C1OC1OC(C)C(O)C(O)C1O (centres unmarked) ?
Out: 0.96

In: Query OC[C@H]1O[C@@H](O[C@H]2[C@H](O)[C@@H](O)C(O)O[C@@H]2CO)[C@H](O)[C@@H](O)[C@H]1O (mixture of isomers) next
Out: 0.48

In: Query CC(=O)NC1C(O)CC(OC2C(O)C(CO)OC(OC3C(CO)OC(O)C(O)C3OC3OC(C)C(O)C(O)C3O)C2O)(C(=O)O)OC1C(O)C(O)CO (centres unmarked) next
Out: 0.68

In: Query CC(=O)NC1C(OC2C(O)C(CO)OC(OC3C(CO)OC(O)C(O)C3O)C2O)OC(CO)C(OC2OC(CO)C(O)C(O)C2O)C1O (centres unmarked) next
Out: 0.52
